All values here come from ChEMBL document CHEMBL2218924.

Target: Serine/threonine-protein kinase D2 (Homo sapiens)
Conditions: at 1 µM
Entries and their measured residual activity follow.
quantity-name: residual activity (%)

[[record]]
compound = "O=C(c1ccccc1)c1ccc(N2CCOCC2)cc1O"
target_system = "Serine/threonine-protein kinase D2 (Homo sapiens)"
recorded_number = 96

[[record]]
compound = "O=C1NC(=O)c2c1c1c3ccccc3[nH]c1n1cncc21"
target_system = "Serine/threonine-protein kinase D2 (Homo sapiens)"
recorded_number = 90

[[record]]
compound = "Nc1ncnc2c1c(-c1ccc(Oc3ccccc3)cc1)cn2C1CCCC1"
target_system = "Serine/threonine-protein kinase D2 (Homo sapiens)"
recorded_number = 93

[[record]]
compound = "O=C(NC(NC(=S)Nc1ccc(F)c([N+](=O)[O-])c1)C(Cl)(Cl)Cl)C(c1ccccc1)c1ccccc1 (centres undefined)"
target_system = "Serine/threonine-protein kinase D2 (Homo sapiens)"
recorded_number = 100


* * *

Molecular target: Receptor-interacting serine/threonine-protein kinase 2 (Homo sapiens) (UniProt O43353);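 further: residual kinase activity of the enzyme remaining, given as percent of control, assayed in 8 mM MOPS pH 7.0 buffer with 0.2 mM EDTA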
Sequence (O43353 whole entry): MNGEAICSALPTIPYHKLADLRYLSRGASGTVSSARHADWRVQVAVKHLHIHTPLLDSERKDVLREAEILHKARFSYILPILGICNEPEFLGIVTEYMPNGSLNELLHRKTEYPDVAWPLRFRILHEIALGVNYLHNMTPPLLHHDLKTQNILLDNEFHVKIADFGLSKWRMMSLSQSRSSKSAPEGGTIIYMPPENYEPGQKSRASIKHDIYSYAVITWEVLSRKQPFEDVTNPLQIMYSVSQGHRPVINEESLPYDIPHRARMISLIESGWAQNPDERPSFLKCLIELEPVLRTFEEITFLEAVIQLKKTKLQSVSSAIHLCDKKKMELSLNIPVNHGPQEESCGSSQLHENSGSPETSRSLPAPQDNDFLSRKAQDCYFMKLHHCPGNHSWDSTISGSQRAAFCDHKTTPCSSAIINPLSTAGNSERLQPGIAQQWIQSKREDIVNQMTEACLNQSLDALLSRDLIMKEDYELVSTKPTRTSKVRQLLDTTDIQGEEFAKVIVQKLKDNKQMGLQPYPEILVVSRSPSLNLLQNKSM
Settings: at 10 µM
Description: Millipore: Percentage of residual kinase activity of RIPK2 at 10uM relative to control. Control inhibitor: Phosphoric acid* at 0.3uM. Buffer: 8 mM MOPS pH 7.0, 0.2 mM EDTA
Record class 1 whenever residual activity is at 40% or higher; record class 0 when lower.

[[record]]
smiles_input = "NC(=O)c1cccc(-c2cc(Nc3ccc(OC(F)(F)F)cc3)ncn2)c1"
group = "class 1"

[[record]]
smiles_input = "NC(=O)c1ccc(-c2nc(-c3ccc4c(c3)OCCO4)c(-c3ccccn3)[nH]2)cc1"
group = "class 0"

[[record]]
smiles_input = "CC(C)[C@H](CO)Nc1nc(Nc2cc(N)cc(Cl)c2)c2ncn(C(C)C)c2n1"
group = "class 1"

[[record]]
smiles_input = "CCCCc1c(-c2ccc(OC)cc2)[nH]c2nccnc12"
group = "class 1"


* * *

Target: Receptor-type tyrosine-protein kinase FLT3 (Homo sapiens)
Settings: at 10 µM
quantity-name: residual activity (%)

[[record]]
smiles_input = "COc1cc2c(cc1OC)-c1n[nH]c(Nc3cccc(F)c3)c1C2"
readout_unit = "%"
recorded_number = 5

[[record]]
smiles_input = "O=C1NC(=O)C(c2cn(CCCO)c3ncccc23)=C1c1cnccn1"
readout_unit = "%"
recorded_number = 51

[[record]]
smiles_input = "NC(=O)c1cccc(-c2cc(Nc3ccc(OC(F)(F)F)cc3)ncn2)c1"
readout_unit = "%"
recorded_number = 93

[[record]]
smiles_input = "O=C(Nc1ccc(Cl)cc1)c1ccccc1NCc1ccncc1"
readout_unit = "%"
recorded_number = 65

[[record]]
smiles_input = "N#Cc1c(NC(=O)c2cccc3ccccc23)sc2c1CCCC2"
readout_unit = "%"
recorded_number = 77

[[record]]
smiles_input = "CCCC(=O)Oc1ccc2[nH]c(C(=O)c3cc4ccccc4[nH]3)cc2c1"
readout_unit = "%"
recorded_number = 50

[[record]]
smiles_input = "O=C1Nc2ccccc2/C1=C\\c1c(Cl)[nH]c2ccccc12"
readout_unit = "%"
recorded_number = 55

[[record]]
smiles_input = "CC(C)(C)c1nc2c3ccc(F)cc3c3c(=O)[nH]ccc3c2[nH]1"
readout_unit = "%"
recorded_number = 26

[[record]]
smiles_input = "CCCCc1c(-c2ccc(O)cc2)[nH]c2nccnc12"
readout_unit = "%"
recorded_number = 6

[[record]]
smiles_input = "CCN(CC)CCNC(=O)c1c(C)[nH]c(/C=C2\\C(=O)Nc3ccc(Cl)cc32)c1C"
readout_unit = "%"
recorded_number = -1

[[record]]
smiles_input = "O=C1Nc2ccc(Cl)cc2/C1=C/c1cc(Cl)c(O)c(Cl)c1"
readout_unit = "%"
recorded_number = 1

[[record]]
smiles_input = "Nc1nc(Nc2ccc(S(N)(=O)=O)cc2)nn1C(=O)c1c(F)cccc1F"
readout_unit = "%"
recorded_number = 5

[[record]]
smiles_input = "O=C1C(Cl)=C(N2C(=O)CCC2=O)C(=O)c2ccccc21"
readout_unit = "%"
recorded_number = 87

[[record]]
smiles_input = "Cn1c2ccccc2c2c3c(c4c5ccccc5n(CCC#N)c4c21)CNC3=O"
readout_unit = "%"
recorded_number = 0

[[record]]
smiles_input = "Nc1ncnc2[nH]nc(Nc3ccc(F)cc3)c12"
readout_unit = "%"
recorded_number = 94

[[record]]
smiles_input = "CCCCc1c(-c2ccc(OC)cc2)[nH]c2nccnc12"
readout_unit = "%"
recorded_number = 30

[[record]]
smiles_input = "Cn1sc(=O)n(Cc2ccccc2)c1=O"
readout_unit = "%"
recorded_number = 81

[[record]]
smiles_input = "NCCNc1ncc(C(N)=O)c(Nc2cccc(C(F)(F)F)c2)n1"
readout_unit = "%"
recorded_number = 5

[[record]]
smiles_input = "CC(C)(C)n1nc(Cc2cccc3ccccc23)c2c(N)ncnc21"
readout_unit = "%"
recorded_number = 75

